target: MAP3K1; conditions: ASO; note: test concentration or dose not given here
These antisense oligonucleotides have a phosphorothioate backbone; sugars and methylation of C are not fully specified.
Quantity name: remaining target (mRNA or protein) (fraction of control)

Before answering, review these 7 worked examples.
GGCAGCCGCGCGCGCGCTGC: 0.81
CAGAAATGTCCTCTGAACTG: 0.5
GTAGTAACCATTCTTGCAGA: 0.42
TTGTTGAACTAGAAGGTCCT: 0.57
CTGTAGTAACCATTCTTGCA: 0.4
GTCTGCCTTTTGTTTGAACC: 0.67
CAGTTTTGAAAACACATGGG: ≥ 1

Kindly consider the entry below.
Query :: What measured remaining target (mRNA or protein) (fraction of control) goes with ACCATTCTTGCAGAACTCAA ?
Result :: 0.55
